Data origin, for the record: patent US20020183307A1

- TGT: human IBAT (Homo sapiens, UniProt Q12908)
- Construct: expressed in transfected cells; host or cells: Baby hamster kidney (BHK) cells, H14 clone
- Sequence (Q12908 whole entry): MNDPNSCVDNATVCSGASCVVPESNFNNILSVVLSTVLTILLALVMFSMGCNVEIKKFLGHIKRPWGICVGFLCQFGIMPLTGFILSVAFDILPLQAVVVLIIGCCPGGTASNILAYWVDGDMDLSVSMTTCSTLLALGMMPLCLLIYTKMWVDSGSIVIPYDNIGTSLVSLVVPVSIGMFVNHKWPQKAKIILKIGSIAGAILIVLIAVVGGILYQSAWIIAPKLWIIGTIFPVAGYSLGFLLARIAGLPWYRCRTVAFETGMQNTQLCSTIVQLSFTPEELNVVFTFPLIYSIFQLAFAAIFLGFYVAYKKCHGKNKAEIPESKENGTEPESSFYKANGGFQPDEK
- PROTOCOL TEXT: In vitro assay of compounds that inhibit IBAT-mediated uptake of [14C]-taurocholate (TC) in H14 cells
- Type: cell-based
- TEST PARAMETERS: Table 8, 1,4 and 1,5 benzothiazipines; additional IC50 values
MEASURE NAME: IC50 (nM)
Output spec: scalar in nM, unitless text.

>  <COMPOUND>
CCCCC1(CCCC)CS(=O)(=O)c2ccc(N(C)C)cc2[C@@H](c2ccc(OCC[N+](CC)(CC)CC)cc2)N1 (racemic) [Compound 3]

>  <UNITS OF MEASURE>
nM

>  <IC50>
2090

$$$$
>  <COMPOUND>
CCCCC1(CCCC)CN(c2ccc(OCc3ccc(C[N+]45CCN(CC4)CC5)cc3)cc2)c2cc(N(C)C)ccc2S(=O)(=O)C1 [Compound 9]

>  <UNITS OF MEASURE>
nM

>  <IC50>
30

$$$$
>  <COMPOUND>
CCCCC1(CCCC)CN(c2ccc(OC)cc2)c2cc(N(C)C)ccc2S(=O)(=O)C1 [Compound 6]

>  <UNITS OF MEASURE>
nM

>  <IC50>
289

$$$$
>  <COMPOUND>
CCCCC1(CCCC)CS(=O)(=O)c2ccc(N(C)C)cc2[C@@H](c2ccc(OCc3ccc(C[N+]45CCN(CC4)CC5)cc3)cc2)N1 (racemic) [Compound 5]

>  <UNITS OF MEASURE>
nM

>  <IC50>
22

$$$$
>  <COMPOUND>
CCCCC1(CCCC)CS(=O)(=O)c2ccc(N(C)C)cc2[C@@H](c2ccc(OCCOCCOCC[N+](CC)(CC)CC)cc2)N1 (racemic) [Compound 4]

>  <UNITS OF MEASURE>
nM

>  <IC50>
74

$$$$

Quick one: give measured IC50 for CCCCC1(CCCC)CN(c2ccc(OCC[N+](CC)(CC)CC)cc2)c2cc(N(C)C)ccc2S(=O)(=O)C1 [Compound 7]
15100

Quick one: give measured IC50 for CCCC[C@]1(CC)CS(=O)(=O)c2ccccc2[C@@H](c2ccccc2)N1 [Compound 1]
600

Quick one: give measured IC50 for CCCCC1(CCCC)CN(c2ccc(OCCOCCOCC[N+](CC)(CC)CC)cc2)c2cc(N(C)C)ccc2S(=O)(=O)C1 [Compound 8]
300
